Assay: NFAT Signaling Pathway (AID 444);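 also: carbachol stimulus at about its EC50 of 1 µM final; % is scaled to controls: 0 for no effect and ±100 for the full control effect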
Conditions: Jurkat NFAT-bla M1, carbachol, beta-lactamase ratio, 5 h; at 17.2 µM (top of the series) unless noted
Results filed as inconclusive are left out. The source made the active and inactive calls. Calls follow the shape of the dose curve; as a rule, active = well fitted curve in either direction with a large enough effect (not every such curve was filed as active); inconclusive = small, poorly fitted or top-dose-only effect, or another doubt; inactive = flat fitted curve, though single readings scatter.
Reported activity change, negative = inhibition values follow for various molecules

So what's the measured activity change, negative = inhibition for this one? CCn1cc(C(=O)NCc2ccccn2)c(=O)c2cc(F)c(N3CCN(C)CC3)cc21
-29.8% (inactive)

So what's the measured activity change, negative = inhibition for this one? Cc1nn2c(-c3ccc(Cl)cc3)nnc2s1
-5.76% (inactive)

So what's the measured activity change, negative = inhibition for this one? Cn1c(=O)n(CC(=O)Nc2ccccc2)c2ccccc21
-4.15% (inactive)

So what's the measured activity change, negative = inhibition for this one? COc1cccc(C(=O)NCC(=O)n2nc(C)cc2C)c1
-4.99% (inactive)

Please examine the following record next.
So what's the measured activity change, negative = inhibition for this one? CN(C)CCCN(CCCNC(=O)/C=N/O)Cc1ccccc1
-11.6% (inactive)

* * *

Test: Stat Signaling Pathway (AID 446);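 also: ME-180 cervical cancer cells given 40 pM IL-6 alongside compound; SIE-controlled beta-lactamase reporter measured as 460/530 nm FRET emission ratio; % is scaled to controls: 0 for no effect and ±100 for the full control effect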
Conditions: ME-180 SIE beta-lactamase reporter, IL-6 stimulated, 5 h; at 17.2 µM (top of the series) unless noted
Records with an inconclusive call do not appear.
Reported activity, negative = inhibition values follow for various compounds
Hi! Could you send only the number? It should be in %, unit omitted.

# count of solved cases: 3
So what's the measured activity, negative = inhibition for this one? CN(C)/C=C1\N=C(c2ccc(Cl)cc2Cl)OC1=O
3.89

So what's the measured activity, negative = inhibition for this one? CN(CCOC(=O)c1cccc(Br)c1)C(C)(C)C
7.11

So what's the measured activity, negative = inhibition for this one? CCCC(CCC(=O)Nc1ccc(C(=O)OCC)cc1)C(=O)O (centres undefined)
3.58

Continuing:
So what's the measured activity, negative = inhibition for this one? CC(=O)Nn1cnc2c(c1=O)C1(CCCC1)Cc1ccccc1-2
10.3

So what's the measured activity, negative = inhibition for this one? C=CCc1cccc(/C=N/c2ncn[nH]2)c1O
5.03

So what's the measured activity, negative = inhibition for this one? Cc1nc(N2CCN(C(=O)c3ccc(Cl)cc3)CC2)c(C#N)c2c1COC(C)(C)C2
-17.4

So what's the measured activity, negative = inhibition for this one? CCOC(=O)c1c(C)cccc1OCC(N)=O
-2.4

So what's the measured activity, negative = inhibition for this one? COCCOC(=O)C1=C(C)NC(SCC(=O)NC(C)(C)C)=C(C#N)C1c1ccco1 (centres undefined)
-8.48

So what's the measured activity, negative = inhibition for this one? CC1(C)NC(=O)N(CC(O)Cn2nnc3ccccc32)C1=O (centres undefined)
6.79

So what's the measured activity, negative = inhibition for this one? CCOC(=O)CCc1c(C)c(C#N)c2nc3ccccc3n2c1-n1ccnc1C
-4.34

* * *

System: CP297
Assay: qHTS profiling for inhibitors of Plasmodium falciparum proliferation (AID 504749); also: nearly all actives have a fitted effect of over 60% in size; also: potency is read from the fitted curve at half-maximal effect
Conditions: P. falciparum in erythrocytes, SYBR Green DNA, 72 h; series mostly up to 28.7 µM
Records with an inconclusive call do not appear. Calls of active or inactive are those of the source. Calls follow the shape of the dose curve; as a rule, active = well fitted inhibition curve with a large enough effect; inconclusive = small, poorly fitted or top-dose-only effect; inactive = flat fitted curve, though single readings scatter.
quantityKind: Potency

# count of solved cases: 5
Report Potency for OC[C@@H]1O[C@](CO)(O[C@H]2O[C@H](CO)[C@@H](O)[C@H](O)[C@H]2O)[C@H](O)[C@H]1O tested on CP297.
inactive

Report Potency for OC[C@@H](O)C(O[C@@H]1O[C@@H](CO)[C@H](O)[C@H](O)[C@H]1O)[C@H](O)[C@@H](O)CO (some centres undefined) tested on CP297.
inactive

Report Potency for CO[C@H]1C[C@@H]2CC[C@@H](C)[C@@](O)(O2)C(=O)C(=O)N2CCCC[C@H]2C(=O)O[C@H]([C@H](C)C[C@@H]2CC[C@@H](O)[C@H](OC)C2)CC(=O)[C@H](C)/C=C(\C)[C@@H](O)[C@@H](OC)C(=O)[C@H](C)C[C@H](C)/C=C/C=C/C=C/1C tested on CP297.
4.26 µM (active)

Report Potency for C[C@H]1[C@@H](OC(=O)CCC(=O)O)OC2OC3(C)CC[C@H]4[C@H](C)CC[C@@H]1[C@@]24OO3 (some centres undefined) tested on CP297.
0.0048 µM (active)

Report Potency for CO/N=C(/C(=O)N[C@@H]1C(=O)N2C(C(=O)O)=C(CSc3cnns3)CS[C@H]12)c1csc(N)n1 tested on CP297.
inactive

Continuing:
Report Potency for C=NC(C(=O)NC1C(=O)N2C1SC(C)(C)C2C(=O)O)c1ccccc1 (centres undefined) tested on CP297.
inactive

Report Potency for CNC1C(O)C(OC2C(NC(=O)C(O)CN)CC(N)C(OC3OC(CN)C(O)C(O)C3O)C2O)OCC1(C)O (centres undefined) tested on CP297.
inactive

Report Potency for CCCCN1CC(O)C(O)C(O)C1CO (centres undefined) tested on CP297.
inactive

* * *

Test: qHTS assay for cell viability of the p53RE-bla HCT-116 cell line (AID 743292); also: nearly all actives have a fitted effect of over 55% in size
Conditions: p53RE-bla HCT-116 viability, ATP luminescence, 16 h; series mostly up to 95 µM
Procedure: U.S. Tox21 Program National Center for Advancing Translational Sciences [NCATS] NIH Chemical Genomics Center [NCGC] U.S. Environmental Protection Agency [EPA] National Institutes of Environmental Health Sciences [NIEHS] National Toxicology Program [NTP] […] Tox21 Assay Protocol Summary: Cell viability after compound treatment was measured using a luciferase-coupled ATP quantitation assay (CellTiter-Glo viability assay, Promega, Madison, WI) in CellSensor p53RE-bla HCT-116 cell line (Invitrogen). […]
Inconclusive results are not listed. The source made the active and inactive calls. The call rests on the fitted dose curve; in most records, active means well fitted cell-killing curve with a large enough effect; inconclusive means small, poorly fitted or top-dose-only effect, or effect the other way; inactive means flat fitted curve, though single readings scatter.
Return exactly one item of T (active), F (inactive)

Would you mind telling me which call this test gave Cc1cccc(O)c1C ?
F

Continuing:
Would you mind telling me which call this test gave Cc1cc(Nc2ccc(O)cc2)ccc1N ?
F

Would you mind telling me which call this test gave O=C(/C=C/c1ccc(O)c(O)c1)OC1C[C@](O)(C(=O)O)C[C@@H](O)[C@H]1O (stereo partly specified) ?
F

Would you mind telling me which call this test gave CC/C(=C(\c1ccccc1)c1ccc(OCCN(C)C)cc1)c1ccc(O)cc1 ?
T

Would you mind telling me which call this test gave O=C(OCC(COC(=O)c1ccccc1)(COC(=O)c1ccccc1)COC(=O)c1ccccc1)c1ccccc1 ?
F

Would you mind telling me which call this test gave CNc1ccc(O)cc1 ?
T

* * *

System: ICS
Assay: qHTS profiling for inhibitors of Plasmodium falciparum proliferation (AID 504749); also: nearly all actives have a fitted effect of over 60% in size
Settings: P. falciparum in erythrocytes, SYBR Green DNA, 72 h; series mostly up to 28.7 µM
Records with an inconclusive call do not appear. Calls of active or inactive are those of the source. The call rests on the fitted dose curve; in most records, active means well fitted inhibition curve with a large enough effect; inconclusive means small, poorly fitted or top-dose-only effect; inactive means flat fitted curve, though single readings scatter.
Return exactly one item of active, inactive

Consider the following illustrative entries.
Would you mind telling me which call this test gave CC(=O)OCC(=O)[C@@]1(O)CCC2C3C[C@H](C)C4=CC(=O)C=CC4(C)C3C(O)CC21C (some centres not stated) ?
inactive

Would you mind telling me which call this test gave CCCCCCCCCCCCCCCC(=O)OCC(COP(=O)(O)OCC[N+](C)(C)C)OC(=O)CCCCCCCCCCCCCCC (configuration not stated) ?
inactive

Continuing:
Would you mind telling me which call this test gave C=CCN1CC(C(=O)N(CCCN(C)C)C(=O)NCC)CC2c3cccc4[nH]cc(c34)CC21 (configuration not stated) ?
active

Would you mind telling me which call this test gave COc1ccc(S(=O)(=O)N2c3ccc(Cl)cc3[C@](O)(c3ccccc3Cl)[C@@H]2C(=O)N2CCC[C@H]2C(N)=O)cc1OC ?
active

* * *

Assay: Stat Signaling Pathway (AID 446);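 also: ME-180 cervical cancer cells given 40 pM IL-6 alongside compound; SIE-controlled beta-lactamase reporter measured as 460/530 nm FRET emission ratio; % is scaled to controls: 0 for no effect and ±100 for the full control effect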
Details: ME-180 SIE beta-lactamase reporter, IL-6 stimulated, 5 h; at 17.2 µM (top of the series) unless noted
Inconclusive results are not listed. Calls of active or inactive are those of the source. Calls follow the shape of the dose curve; as a rule, active = well fitted curve in either direction with a large enough effect (not every such curve was filed as active); inconclusive = small, poorly fitted or top-dose-only effect, or another doubt; inactive = flat fitted curve, though single readings scatter.
Reported activity, negative = inhibition values follow for various molecules

So what's the measured activity, negative = inhibition for this one? COc1ccc(C(=O)/C=C/Nc2cccc(C)n2)cc1OC
0.139% (inactive)

Continuing:
So what's the measured activity, negative = inhibition for this one? CC1CCN(c2ncnc3c2cnn3Cc2ccc(Cl)cc2)CC1
-11.4% (inactive)

So what's the measured activity, negative = inhibition for this one? O=C(NCC(F)(F)F)N1CCOCC1
-4.01% (inactive)

So what's the measured activity, negative = inhibition for this one? CSc1nc(O)c(Cc2ccccc2)c(=O)[nH]1
0.301% (inactive)

* * *

Reported activity change, negative = inhibition values follow for various compounds
Assay: AP1 Signaling Pathway (AID 357);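 also: ME-180 reporter cells stimulated with EGF at its EC50 level; % is scaled to controls: 0 for no effect and ±100 for the full control effect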
Details: ME-180 (cervical carcinoma) AP-1-bla reporter, EGF-induced, beta-lactamase ratio, 5 h; at 17.2 µM (top of the series) unless noted
Inconclusive results are not listed.
Hi! Could you send only the number? It should be in %, unit omitted.

# count of solved cases: 4
So what's the measured activity change, negative = inhibition for this one? O=C1CCC(=O)N1c1nc2n(n1)C(c1ccccc1)C=C(c1ccc(Br)cc1)N2 (stereo not drawn)
-22.1

So what's the measured activity change, negative = inhibition for this one? COc1ccc(/C(O)=C2\C(=O)C(=O)N(c3cc(C)on3)C2c2ccccc2OC)cc1C (stereo not drawn)
-17.1

So what's the measured activity change, negative = inhibition for this one? CCCCCNC(=O)C(C#N)c1nc2ccccc2nc1N1CC(C)OC(C)C1 (stereo not drawn)
-18.2

So what's the measured activity change, negative = inhibition for this one? COC(=O)CSC1=C(C#N)C(=O)NC2(CCCCC2)S1
1.61

Continuing:
So what's the measured activity change, negative = inhibition for this one? C=CCc1cccc(/C=N/c2ncn[nH]2)c1O
-5.91

So what's the measured activity change, negative = inhibition for this one? COc1ccc(CN(C)CCc2ccccn2)c(OC)c1OC
-14.2

So what's the measured activity change, negative = inhibition for this one? Cc1cc(OCC(=O)Nn2cnnc2)ccc1Br
11.6
